Assay: BSK_MyoF_SRB: Viability Assessment in the BioMAP Diversity Plus: MyoF Assay (AID 2284267);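 also: total protein by SRB absorbance in parallel cultures as cytotoxicity measure; cells assessed 24 h after compound addition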
Settings: primary human lung fibroblasts
Procedure: BSK_MyoF is a cell-based, multiplexed-readout assay that uses lung fibroblasts, […], with measurements taken at 24 hours after chemical dosing in a microplate: 96-well plate.BSK_MyoF_SRB is an assay component measured in the BSK_MyoF assay. […] The levels of cell surface (or secreted, indicated by the prefix "s") biomarker endpoints were measured by ELISA. […] Plates were read after 6 h.
The source made the active and inactive calls. The calls were made as follows: active = hit-call score of the fitted dose curve at least 0.9, where 1 is the maximum; inactive = score below 0.9.
assay metric: AC50

>>> result("NCC(F)(F)C(F)(F)C(F)(F)C(F)(F)C(F)(F)C(F)(F)C(F)(F)C(F)(F)F")
"inactive"
>>> result("O=C1c2c(O)ccc(Nc3ccc(CCO)cc3)c2C(=O)c2c([N+](=O)[O-])ccc(O)c21")
"11 µM (active)"
>>> result("C=CC(=O)OCC(F)(F)C(F)(F)C(F)(F)COC(=O)C=C")
"10.6 µM (active)"
>>> result("Nc1cc([N+](=O)[O-])cc(Cl)c1O")
"inactive"
>>> result("OCCCCC(F)(F)C(F)(F)C(F)(F)C(F)(F)F")
"inactive"

Entry Cc1cnccn1 needs its AC50 filled in; supply it.
inactive

Identify measured AC50 associated with NC(O)(C(F)(F)F)C(F)(F)F
inactive

Give recorded AC50. CCN(CC)c1ccc(C=O)cc1
inactive

Could you please provide reported AC50 for CCN(CC)c1ccc2c(c1)Oc1cc(N(CC)CC)ccc1C21OC(=O)c2ccccc21 ? Thanks!
inactive

Fill in reported AC50 for this entry: O=C1C=CC(=O)N1c1ccc(Cc2ccc(N3C(=O)C=CC3=O)cc2)cc1
3.58 µM (active)

Answer with the recorded AC50 of FC(F)(F)C(F)(F)C(F)(F)CC1CO1 (stereo not drawn) only.
inactive

Hello, please tell me recorded AC50 for this one: CC(C)(C)c1cc(CCC(=O)NCCCCCCNC(=O)CCc2cc(C(C)(C)C)c(O)c(C(C)(C)C)c2)cc(C(C)(C)C)c1O
inactive

Tell us which AC50 value is on record for OCC(O)CC(F)(F)C(F)(F)C(F)(F)C(F)(F)C(F)(F)C(F)(F)C(F)(F)C(F)(F)F (stereo not drawn)
inactive

Give the measured AC50 for O=C(Cl)C(F)(F)C(F)(F)C(F)(F)C(F)(F)C(F)(F)C(F)(F)C(F)(F)F
inactive

Quickly give me recorded AC50 for OCC(O)CC(F)(F)C(F)(F)C(F)(F)C(F)(F)F (stereo not drawn)
inactive

Value source: PubChem BioAssay (EPA / NIEHS)
